Target: Tyrosine-protein phosphatase non-receptor type 5 (Homo sapiens)
Sequence (P54829 whole entry): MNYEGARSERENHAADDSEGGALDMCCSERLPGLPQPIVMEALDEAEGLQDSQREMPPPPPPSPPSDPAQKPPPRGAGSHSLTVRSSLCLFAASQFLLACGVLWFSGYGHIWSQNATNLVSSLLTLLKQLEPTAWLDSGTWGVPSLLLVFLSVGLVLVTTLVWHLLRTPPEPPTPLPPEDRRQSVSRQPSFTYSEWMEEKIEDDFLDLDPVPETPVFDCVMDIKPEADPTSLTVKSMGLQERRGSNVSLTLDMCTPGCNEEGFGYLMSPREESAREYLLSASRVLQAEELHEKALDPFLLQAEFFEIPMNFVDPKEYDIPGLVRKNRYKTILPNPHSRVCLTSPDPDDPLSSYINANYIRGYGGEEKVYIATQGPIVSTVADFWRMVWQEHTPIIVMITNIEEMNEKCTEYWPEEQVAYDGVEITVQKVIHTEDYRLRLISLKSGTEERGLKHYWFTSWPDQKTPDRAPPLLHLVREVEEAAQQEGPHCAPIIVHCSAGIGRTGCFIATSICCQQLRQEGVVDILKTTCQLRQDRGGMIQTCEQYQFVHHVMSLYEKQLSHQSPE
Assay: STEP phosphatase inhibitor potency, dose response, orthogonal assay for STEP inhibitor project, biochemical, colorimetric absorbance (AID 624207)
// IC50 lookup, one value per entry

Examples from the recorded data:
STRUCTURE_SMILES | IC50
O=C(Nc1cccc2c(=O)[nH][nH]c(=O)c12)c1ccc([N+](=O)[O-])cc1 | > 80 µM
Clc1ccc(Cl)c(-c2nc(-c3ccncc3)no2)c1 | > 80 µM

Query: What IC50 appears in the records for this compound with Tyrosine-protein phosphatase non-receptor type 5 (Homo sapiens)? `CCN(c1ccccc1)S(=O)(=O)c1cc(C(=O)OCC(=O)c2c(N)n(C)c(=O)n(C)c2=O)ccc1C`
Result: > 80 µM
